Data provenance: PubChem BioAssay (NCI)

system: PC-3 prostate; test: NCI-60 one-dose screen, 48 h (100 = growth as untreated, 0 = no growth, -100 = all killed); settings: 10 µM unless noted
The panel holds about 83,000 compounds, 20% with a hit somewhere; the sample as a whole holds those more often.
Measured growth, listed per entry for reference.
measured-endpoint: growth (%)

compound | measured-endpoint | unit-abbreviation | measured-value
Nc1ncnc2c1c(-c1ccc(Oc3ccccc3)cc1)nn2C[C@@H]1SSC[C@@H]1O | growth | % | 55.4
CCN1C(=O)N(CC)C2C1NN=c1s/c(=C\c3cccnc3)c(=O)n12 (stereo not given) | growth | % | 21.3
Cn1c(=O)c2[nH]c(C3CC=CCC3)nc2n(C)c1=O (stereo not given) | growth | % | 87.6
Cc1nn(-c2ccc(Cl)cc2)c2ncnc(N/N=C/c3cccc([N+](=O)[O-])c3)c12 | growth | % | 39
N#Cc1c(-c2ccccc2)cc(-c2ccccc2)n(CC(=O)NO)c1=O | growth | % | 34.9
O=c1ccn(-c2ncnc3nc[nH]c23)cc1 | growth | % | 96.6
O=C(Nc1ccncc1)C(=O)c1cn(S(=O)(=O)c2ccc(Cl)cc2)c2ccccc12 | growth | % | 41.7
COc1ccc(/C=C2\Oc3cc(OCCCN4CCCC4)ccc3C2=O)cc1 | growth | % | 85.5
Cc1ccc(-c2nc(C(Cl)Cl)n3nc(-c4ccccc4)cc3n2)cc1 | growth | % | -13
O=C(Nc1cccc(-n2cc(-c3ccncc3)c(-c3ccc(Cl)c(O)c3)n2)c1)Nc1cc(C(F)(F)F)cc(C(F)(F)F)c1 | growth | % | -32.4

----------
system: SN12C renal; assay: NCI-60 one-dose screen, 48 h; settings: 10 µM unless noted
About 83,000 compounds went through this panel and 20% of them were active in at least one assay; those are over-represented in the sample as a whole. Calls of active or inactive are those of the source. The calls were made as follows: active = growth percent below 10; inactive = the rest.
Labels: yes = active, no = inactive

compound | group-label
CCN(CC)CCC(CNc1ccnc2cc(Cl)ccc12)c1ccccc1 (stereo not given) | no
O=S(=O)(NCCCNc1nccc(-n2ccc3cccnc32)n1)c1cccc(C(F)(F)F)c1 | no
COc1ccc(-c2ccc(-c3ccc(C(=N)N)cn3)s2)cc1OC | no
CCN(CC)c1ccc(C(=N)c2ccc(N(CC)CC)cc2)cc1 | yes
CCOc1cc2c(Cl)ncnc2c(OCC)c1OCC | no
Nc1nc(-c2ccccc2)c(CCCOc2ccc(NC(=O)CBr)cc2)c(=O)[nH]1 | no
N/C(=N\S(=O)(=O)c1ccccc1)Nc1nc2ccccc2s1 | no
CCOC(=O)c1c(/N=C2\SC(=O)/C(=C\C(=O)OC)N2NC)sc2c1CCN(C(=O)OCC)C2 | no
CCOC(=O)c1c(NS(=O)(=O)c2ccc(C)cc2)sc2c1CCC1(C2)OCCO1 | no
O=[N+]([O-])c1cc(Cl)c2[nH]c3c(Cl)cc([N+](=O)[O-])cc3c2c1 | yes

----------
Listing: growth of selected molecules
tested on: CAKI-1 renal; experiment: NCI-60 one-dose screen, 48 h (100 = growth as untreated, 0 = no growth, -100 = all killed); details: 10 µM unless noted
About 83,000 compounds went through this panel and 20% of them were active in at least one assay; those are over-represented in the sample as a whole.
measured-endpoint: growth (%)

molecule | unit-abbreviation | measured-value
O=C1NN(C(=O)c2ccc(Cl)cc2)C(c2ccccc2)=N/C1=C\c1ccc(F)cc1 | % | 85.1
COc1cc(C2C3=C(COC3=O)Nc3cc4c(cc32)OCO4)cc2c1OCO2 (stereo not given) | % | 44.1
C=C1C(=O)O[C@H]2[C@H]1CC/C(Cn1cc(CNC(=O)c3cc4ccccc4[nH]3)nn1)=C\CC[C@@]1(C)O[C@@H]21 | % | 80.8
CCCCN(CCCC)c1ccc(C(=N)c2ccc(N(CCCC)CCCC)cc2)cc1 | % | -37.6
Nc1cccc(Cl)c1N | % | 96.4
